Below, each entry is listed with its recorded antagonist pA2 (Schild, agonist NDP-MSH).
Biological target: mouse melanocortin-4 receptor (mouse, UniProt P56450 1-332)
Sequence (P56450 whole entry): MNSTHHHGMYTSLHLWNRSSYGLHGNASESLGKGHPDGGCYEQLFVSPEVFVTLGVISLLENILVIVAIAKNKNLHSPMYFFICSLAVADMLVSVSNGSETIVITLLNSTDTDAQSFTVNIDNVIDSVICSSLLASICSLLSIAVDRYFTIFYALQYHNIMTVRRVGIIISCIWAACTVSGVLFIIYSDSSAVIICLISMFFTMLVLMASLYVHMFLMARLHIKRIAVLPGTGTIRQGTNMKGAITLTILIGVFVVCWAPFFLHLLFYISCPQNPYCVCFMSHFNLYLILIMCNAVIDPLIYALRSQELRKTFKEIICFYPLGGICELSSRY
Assay: cell-based or functional assay
Square brackets hold non-standard residues; d marks the D form. hPhe = N[C@@H](CCc1ccccc1)C(=O)O; Nle = CCCC[C@H](N)C(=O)O; Dap = NC[C@H](N)C(=O)O
Format: numeric value only, no unit, no commentary.

Q) Using the record for cyclo(PRFFNS[Nle][dP]) (SMILES CCCC[C@@H]1NC(=O)[C@H](CO)NC(=O)[C@H](CC(N)=O)NC(=O)[C@H](Cc2ccccc2)NC(=O)[C@H](Cc2ccccc2)NC(=O)[C@H](CCCNC(=N)N)NC(=O)[C@@H]2CCCN2C(=O)[C@H]2CCCN2C1=O) [c[Pro-Arg-Phe-Phe-Asn-Ser-Nle-DPro]] , report its antagonist pA2 (Schild, agonist NDP-MSH).
A) 8.5

***
Q) Which antagonist pA2 (Schild, agonist NDP-MSH) reading was recorded for the binder cyclo(PRF[hPhe][Dap]SF[dP]) (SMILES N=C(N)NCCC[C@@H]1NC(=O)[C@@H]2CCCN2C(=O)[C@H]2CCCN2C(=O)[C@H](Cc2ccccc2)NC(=O)[C@H](CO)NC(=O)[C@H](CN)NC(=O)[C@H](CCc2ccccc2)NC(=O)[C@H](Cc2ccccc2)NC1=O) [c[Pro-Arg-Phe-hPhe-Dap-Ser-Phe-DPro]] ?
A) 9.2

Q) Quick check: antagonist pA2 (Schild, agonist NDP-MSH) of cyclo(PRFFRA[Nle][dP]) (SMILES CCCC[C@@H]1NC(=O)[C@H](C)NC(=O)[C@H](CCCNC(=N)N)NC(=O)[C@H](Cc2ccccc2)NC(=O)[C@H](Cc2ccccc2)NC(=O)[C@H](CCCNC(=N)N)NC(=O)[C@@H]2CCCN2C(=O)[C@H]2CCCN2C1=O) [c[Pro-Arg-Phe-Phe-Arg-Ala-Nle-DPro]] ?
A) 9.1
